Recorded relative viability by entry
System: NCI-H2405
Assay: relative viability (nuclei count vs DMSO), 5 days (fraction); higher = more cells survive
Conditions: first compound 0.1 µM

Examples with their reported relative viability follow.
MOLECULE | relative viability
Cc1cn(-c2cc(NC(=O)c3ccc(C)c(Nc4nccc(-c5cccnc5)n4)c3)cc(C(F)(F)F)c2)cn1 [Nilotinib] + COc1cccc2cc(-c3nc([C@H]4CC[C@H](C(=O)O)CC4)n4ncnc(N)c34)[nH]c12 [OSI-027] (partner 0.5 µM) | 0.432
Cc1cn(-c2cc(NC(=O)c3ccc(C)c(Nc4nccc(-c5cccnc5)n4)c3)cc(C(F)(F)F)c2)cn1 [Nilotinib] + C[C@@H](Oc1cc(-c2cnn(C3CCNCC3)c2)cnc1N)c1c(Cl)ccc(F)c1Cl [Crizotinib] (partner 1 µM) | 0.857
Cc1cn(-c2cc(NC(=O)c3ccc(C)c(Nc4nccc(-c5cccnc5)n4)c3)cc(C(F)(F)F)c2)cn1 [Nilotinib] + CC(C)C[C@H](NC(=O)[C@H](Cc1ccccc1)NC(=O)c1cnccn1)B(O)O [Bortezomib] (partner 0.002 µM) | 0.553

[in] Please look up its relative viability: Cc1cn(-c2cc(NC(=O)c3ccc(C)c(Nc4nccc(-c5cccnc5)n4)c3)cc(C(F)(F)F)c2)cn1 [Nilotinib] + Cc1nc(NC(=O)N2CCC[C@H]2C(N)=O)sc1-c1ccnc(C(C)(C)C(F)(F)F)c1 [Alpelisib] (partner 2 µM)
[out] 0.486

[in] Please look up its relative viability: Cc1cn(-c2cc(NC(=O)c3ccc(C)c(Nc4nccc(-c5cccnc5)n4)c3)cc(C(F)(F)F)c2)cn1 [Nilotinib] + Cc1nc(Nc2ncc(C(=O)Nc3c(C)cccc3Cl)s2)cc(N2CCN(CCO)CC2)n1 [Dasatinib] (partner 0.075 µM)
[out] 0.207

* * *

Tested on: PC-14
Test: relative viability (nuclei count vs DMSO), 5 days (fraction); higher = more cells survive
Details: first compound 2.53 µM
MEASUREMENT KIND: relative viability
Give the value as a plain number.

[in] Please look up its relative viability: Nc1cccc2c1CN(C1CCC(=O)NC1=O)C2=O (configuration not stated) [Lenalidomide] + CCNC(=O)c1noc(-c2cc(C(C)C)c(O)cc2O)c1-c1ccc(CN2CCOCC2)cc1 [Luminespib] (partner 0.01 µM)
[out] 0.151

[in] Please look up its relative viability: Nc1cccc2c1CN(C1CCC(=O)NC1=O)C2=O (configuration not stated) [Lenalidomide] + CC(=O)c1c(C)c2cnc(Nc3ccc(N4CCNCC4)cn3)nc2n(C2CCCC2)c1=O [Palbociclib] (partner 0.5 µM)
[out] 0.6

* * *

Recorded relative viability by entry
Tested on: LCLC-103H
Experiment: relative viability (nuclei count vs DMSO), 5 days (fraction); higher = more cells survive
Conditions: first compound 2.53 µM
Give the value as a plain number.

MOLECULE | relative viability
Nc1cccc2c1CN(C1CCC(=O)NC1=O)C2=O (stereo not given) [Lenalidomide] + N=C(N)NC(=N)NCCc1ccccc1 [Phenformin] (partner 250 µM) | 0.352
Nc1cccc2c1CN(C1CCC(=O)NC1=O)C2=O (stereo not given) [Lenalidomide] + Nc1ncn([C@H]2C[C@H](O)[C@@H](CO)O2)c(=O)n1 [Decitabine] (partner 2 µM) | 0.73
Nc1cccc2c1CN(C1CCC(=O)NC1=O)C2=O (stereo not given) [Lenalidomide] + C[C@@H](Oc1cc(-c2cnn(C3CCNCC3)c2)cnc1N)c1c(Cl)ccc(F)c1Cl [Crizotinib] (partner 1 µM) | 1.05
Nc1cccc2c1CN(C1CCC(=O)NC1=O)C2=O (stereo not given) [Lenalidomide] + Cc1cc(Nc2cc(N3CCN(C)CC3)nc(Sc3ccc(NC(=O)C4CC4)cc3)n2)n[nH]1 [Tozasertib] (partner 0.1 µM) | 0.644

Proceed to the following item.
[in] Reported relative viability for LCLC-103H, given Nc1cccc2c1CN(C1CCC(=O)NC1=O)C2=O (stereo not given) [Lenalidomide] + Cc1nc(NC(=O)N2CCC[C@H]2C(N)=O)sc1-c1ccnc(C(C)(C)C(F)(F)F)c1 [Alpelisib] (partner 2 µM) ?
[out] 0.862

* * *

Recorded relative viability by entry
Tested on: PC-3 [JPC-3]
Experiment: relative viability (nuclei count vs DMSO), 5 days (fraction); higher = more cells survive
Settings: first compound 2 µM
Give the value as a plain number.

Examples with their reported relative viability follow.
MOLECULE | relative viability
CN1CCN(CCOc2cc(OC3CCOCC3)c3c(Nc4c(Cl)ccc5c4OCO5)ncnc3c2)CC1 [Saracatinib] + N=C(N)NC(=N)NCCc1ccccc1 [Phenformin] (partner 250 µM) | 0.339
Cc1csc(=NC2CCCCC2)n1/N=C/c1ccc(O)c(O)c1O [MIM1] + CC(=O)c1c(C)c2cnc(Nc3ccc(N4CCNCC4)cn3)nc2n(C2CCCC2)c1=O [Palbociclib] (partner 0.5 µM) | 0.493
CN1CCN(CCOc2cc(OC3CCOCC3)c3c(Nc4c(Cl)ccc5c4OCO5)ncnc3c2)CC1 [Saracatinib] + Cc1cc(Nc2cc(N3CCN(C)CC3)nc(Sc3ccc(NC(=O)C4CC4)cc3)n2)n[nH]1 [Tozasertib] (partner 0.1 µM) | 0.469
CN1CCN(CCOc2cc(OC3CCOCC3)c3c(Nc4c(Cl)ccc5c4OCO5)ncnc3c2)CC1 [Saracatinib] + Nc1ncn([C@H]2C[C@H](O)[C@@H](CO)O2)c(=O)n1 [Decitabine] (partner 2 µM) | 0.555

[in] Please look up its relative viability: CN1CCN(CCOc2cc(OC3CCOCC3)c3c(Nc4c(Cl)ccc5c4OCO5)ncnc3c2)CC1 [Saracatinib] + NC(=O)Nc1cc(-c2cccc(F)c2)sc1C(=O)N[C@H]1CCCNC1 [AZD7762] (partner 0.2 µM)
[out] 0.448

[in] Please look up its relative viability: Cc1csc(=NC2CCCCC2)n1/N=C/c1ccc(O)c(O)c1O [MIM1] + CS(=O)(=O)N1CCN(Cc2cc3nc(-c4cccc5[nH]ncc45)nc(N4CCOCC4)c3s2)CC1 [Pictilisib] (partner 1 µM)
[out] 0.707

[in] Please look up its relative viability: CN1CCN(CCOc2cc(OC3CCOCC3)c3c(Nc4c(Cl)ccc5c4OCO5)ncnc3c2)CC1 [Saracatinib] + CC(C)C[C@H](NC(=O)[C@H](Cc1ccccc1)NC(=O)c1cnccn1)B(O)O [Bortezomib] (partner 0.002 µM)
[out] 0.486

[in] Please look up its relative viability: Cc1csc(=NC2CCCCC2)n1/N=C/c1ccc(O)c(O)c1O [MIM1] + Cc1cc(Nc2cc(N3CCN(C)CC3)nc(Sc3ccc(NC(=O)C4CC4)cc3)n2)n[nH]1 [Tozasertib] (partner 0.1 µM)
[out] 0.849

[in] Please look up its relative viability: Cc1csc(=NC2CCCCC2)n1/N=C/c1ccc(O)c(O)c1O [MIM1] + CS(=O)(=O)CCNCc1ccc(-c2ccc3ncnc(Nc4ccc(OCc5cccc(F)c5)c(Cl)c4)c3c2)o1 [Lapatinib] (partner 2 µM)
[out] 0.424

[in] Please look up its relative viability: CN1CCN(CCOc2cc(OC3CCOCC3)c3c(Nc4c(Cl)ccc5c4OCO5)ncnc3c2)CC1 [Saracatinib] + CS(=O)(=O)N1CCN(Cc2cc3nc(-c4cccc5[nH]ncc45)nc(N4CCOCC4)c3s2)CC1 [Pictilisib] (partner 1 µM)
[out] 0.395

* * *

Test system: H3255
Assay: relative viability (nuclei count vs DMSO), 5 days (fraction); higher = more cells survive
Settings: first compound 0.253 µM
MEASUREMENT KIND: relative viability
Give the value as a plain number.

Examples with their reported relative viability follow.
COMPOUND | relative viability
Nc1cccc2c1CN(C1CCC(=O)NC1=O)C2=O (stereo not given) [Lenalidomide] + CC1(C)CCC(c2ccc(Cl)cc2)=C(CN2CCN(c3ccc(C(=O)NS(=O)(=O)c4ccc(N[C@H](CCN5CCOCC5)CSc5ccccc5)c(S(=O)(=O)C(F)(F)F)c4)cc3)CC2)C1 [Navitoclax] (partner 0.5 µM) | 0.519
Nc1cccc2c1CN(C1CCC(=O)NC1=O)C2=O (stereo not given) [Lenalidomide] + CC(=O)Nc1cccc(-n2c(=O)n(C3CC3)c(=O)c3c(Nc4ccc(I)cc4F)n(C)c(=O)c(C)c32)c1 [Trametinib] (partner 0.02 µM) | 0.547
Nc1cccc2c1CN(C1CCC(=O)NC1=O)C2=O (stereo not given) [Lenalidomide] + O=C(c1cc(Cc2n[nH]c(=O)c3ccccc23)ccc1F)N1CCN(C(=O)C2CC2)CC1 [Olaparib] (partner 8 µM) | 0.556
Nc1cccc2c1CN(C1CCC(=O)NC1=O)C2=O (stereo not given) [Lenalidomide] + NC(=O)Nc1cc(-c2cccc(F)c2)sc1C(=O)N[C@H]1CCCNC1 [AZD7762] (partner 0.2 µM) | 0.936

Proceed to the following item.
[in] Please look up its relative viability: Nc1cccc2c1CN(C1CCC(=O)NC1=O)C2=O (stereo not given) [Lenalidomide] + CC(C)C[C@H](NC(=O)[C@H](Cc1ccccc1)NC(=O)c1cnccn1)B(O)O [Bortezomib] (partner 0.002 µM)
[out] 0.886
